Origin of values: the supplement of paper PMC12764529

Assay Notes: folding stability dG unfold from chymotrypsin proteolysis; higher = more stable
Below, each of the sequences is paired with its reported folding stability dG unfold value.
State just the number; it will be interpreted in kcal/mol.

SAGGSAGGSAGGMSITISVPEKTATIEIPGLGKTITIPPGETITVPIPNVPPFKITTEPPSAGGSAGGSAGG [r11_939_JUSTAS]    0.854
SAGGSAGGSAGKKYKVKVILQPKGEDKPLEIEIEVESLEEAKELLEKAFPDTRIRIDVIESAGGSAGGSAGG [r17_428_TrMRF]    2.93
SAGGNLRIRIEMENKDGNKRKIPIPEEEFNRIKESLKNGKPITPEPASWISDYARRNGYDVKIVDIYSAGGS [r8_159_TrROS]    -0.101
SAGGSAGGSAGGEKEPVTLLVVRVDGKLVVVSEEELKKLAEELNVEVEVRLVTVTKEELKSAGGSAGGSAGG [r7_185_TrROS_Hall]    1.94

Proceeding to the next sequence to report its folding stability dG unfold.
QUERY: Reported folding stability dG unfold for SAGGSAKELIIKIKIKVKVNGKTYEIEIEIKAESIEEAIEAIKKKLEEEGLEIEIVEIEIIPKEELSAGGSA [r15_165_TrROS_Hall] : what is it?
RESULT: 3.08

====

Below, each of the sequences is paired with its reported folding stability dG unfold value.
Assay Notes: folding stability dG unfold (combined trypsin and chymotrypsin); higher = more stable

Some sequences with recorded folding stability dG unfold:
SAGKIKEIEMDPPHNQMTLELPEKGRKITINPNMGHLDIEPPDGKPREVPVPNPSDMKEAIKKVLKELKSAG [r5_467_TrROS]    < -1 kcal/mol
EMTVTVKIEIEKTPDSIKIKITVEVNGKKIEEVEITYDKKTKKIYIKVKVKSKEDLDELKKLLEKLGFKVES [r1_455_TrROS_Hall]    > 6 kcal/mol

QUERY: Reported folding stability dG unfold for SALDPAAGTVTATVTRPVTLPDGRTVPVTRPVRVPVTYDVVVRDPETGEVVRAADYDPETGRLRDASAASAG [r14_122_TrMRF] : what is it?
RESULT: < -1 kcal/mol

====

Assay Notes: folding stability dG unfold (combined trypsin and chymotrypsin); higher = more stable
Measurement Type: folding stability dG unfold

Some sequences with recorded folding stability dG unfold:
SAGGGSKIIEVPVIVEPDEDLGKVAEEIAKKIFPENEKVIVKVEKFENSYRIEIFNPEDGKPIIEGEGSAGG [r13_724_TrMRF]    < -1 kcal/mol
SAGGKPDIKDIEIDDVEYDPNEGYFRYEVEIKWPGGKERPIEVPMKYEDGRMTPEDIRKMAKKLIKNSAGGS [r16_221_TrROS]    < -1 kcal/mol

Proceeding to the next sequence to report its folding stability dG unfold.
QUERY: Reported folding stability dG unfold for SAGGSAGGNVKIEVEPGPNGNYLIKIRMPNGTKVEHQFDSPEDAEERAKDFAEEFPPNAQVEIWSAGGSAGG [r6_464_TrROS] : what is it?
RESULT: < -1 kcal/mol

====

Below, each of the sequences is paired with its reported folding stability dG unfold value.
Assay Notes: folding stability dG unfold from chymotrypsin proteolysis; higher = more stable
State just the number; it will be interpreted in kcal/mol.

SAGGSAMPPNMKKVPISIHIPAENYKRDPDGKWKFTADELARHIQRGFRQRFGMPIKKIDVHVHPPSAGGSA [r15_415_TrROS]    0.00448

QUERY: Reported folding stability dG unfold for SGPGEEEVAKRAAAEAAPTPDVREVTEEVEIVVPGTGEKVVVPVTALRLPDGTIVPLPEEEIRAIAEKLLSA [r9_1056_JUSTAS] : what is it?
RESULT: 1.07

QUERY: Reported folding stability dG unfold for SAGGKKMTFKVDEIQTHGNQIMIPIRFPDGHPFPMQIDDPEQLDNLKPGEEIKIEFRPDGSFRIEWRSAGGS [r16_2_TrROS] : what is it?
RESULT: 1.65
